Target: UniProtKB Q92769
Sequence (Q92769 whole entry): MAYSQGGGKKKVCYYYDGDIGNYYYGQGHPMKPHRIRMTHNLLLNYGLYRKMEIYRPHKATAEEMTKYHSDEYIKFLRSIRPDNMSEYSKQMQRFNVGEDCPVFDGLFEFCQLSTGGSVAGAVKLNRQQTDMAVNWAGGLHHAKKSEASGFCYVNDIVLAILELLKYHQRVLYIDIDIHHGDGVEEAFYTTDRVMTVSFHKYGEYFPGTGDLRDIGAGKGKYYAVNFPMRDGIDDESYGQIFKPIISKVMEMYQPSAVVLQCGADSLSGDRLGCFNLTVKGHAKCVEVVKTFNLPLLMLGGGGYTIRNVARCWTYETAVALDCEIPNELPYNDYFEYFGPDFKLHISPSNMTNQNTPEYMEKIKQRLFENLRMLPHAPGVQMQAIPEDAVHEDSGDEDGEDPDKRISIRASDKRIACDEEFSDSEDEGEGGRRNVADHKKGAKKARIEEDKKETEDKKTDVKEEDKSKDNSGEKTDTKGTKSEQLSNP
quantity: IC50 (µM)
The reply should contain only the number, in µM.

Ask: Would you kindly share the measured IC50 for "CC(=O)CCCCC[C@H](NC(=O)C1CCN(C)CC1)c1ncc(-c2ccc3ccccc3c2)[nH]1" ?
Reply: 0.029

* * *

Experiment: Oral bioavailability in rat
Assay type: ADME, organism-based
Settings: in vivo
quantity: bioavailability

Ask: Fill in the blank: the reported bioavailability of "CC(=O)CCCCC[C@H](NC(=O)C1CCN(C)CC1)c1ncc(-c2ccc3ccccc3c2)[nH]1" is ____.
Reply: 0%

* * *

Test: Half life in iv dosed dog
Assay type: ADME, organism-based, Canis lupus familiaris
Conditions: in vivo
quantity: half-life (h)
// note: answer is a bare numeric in h

Ask: Any idea what half-life was measured for "CC(=O)CCCCC[C@H](NC(=O)C1CCN(C)CC1)c1ncc(-c2ccc3ccccc3c2)[nH]1" ?
Reply: 11.8

* * *

# reported pIC50; entries follow
Biological target: Histone deacetylase 7 (Homo sapiens, UniProt Q8WUI4)
Sequence (Q8WUI4 whole entry): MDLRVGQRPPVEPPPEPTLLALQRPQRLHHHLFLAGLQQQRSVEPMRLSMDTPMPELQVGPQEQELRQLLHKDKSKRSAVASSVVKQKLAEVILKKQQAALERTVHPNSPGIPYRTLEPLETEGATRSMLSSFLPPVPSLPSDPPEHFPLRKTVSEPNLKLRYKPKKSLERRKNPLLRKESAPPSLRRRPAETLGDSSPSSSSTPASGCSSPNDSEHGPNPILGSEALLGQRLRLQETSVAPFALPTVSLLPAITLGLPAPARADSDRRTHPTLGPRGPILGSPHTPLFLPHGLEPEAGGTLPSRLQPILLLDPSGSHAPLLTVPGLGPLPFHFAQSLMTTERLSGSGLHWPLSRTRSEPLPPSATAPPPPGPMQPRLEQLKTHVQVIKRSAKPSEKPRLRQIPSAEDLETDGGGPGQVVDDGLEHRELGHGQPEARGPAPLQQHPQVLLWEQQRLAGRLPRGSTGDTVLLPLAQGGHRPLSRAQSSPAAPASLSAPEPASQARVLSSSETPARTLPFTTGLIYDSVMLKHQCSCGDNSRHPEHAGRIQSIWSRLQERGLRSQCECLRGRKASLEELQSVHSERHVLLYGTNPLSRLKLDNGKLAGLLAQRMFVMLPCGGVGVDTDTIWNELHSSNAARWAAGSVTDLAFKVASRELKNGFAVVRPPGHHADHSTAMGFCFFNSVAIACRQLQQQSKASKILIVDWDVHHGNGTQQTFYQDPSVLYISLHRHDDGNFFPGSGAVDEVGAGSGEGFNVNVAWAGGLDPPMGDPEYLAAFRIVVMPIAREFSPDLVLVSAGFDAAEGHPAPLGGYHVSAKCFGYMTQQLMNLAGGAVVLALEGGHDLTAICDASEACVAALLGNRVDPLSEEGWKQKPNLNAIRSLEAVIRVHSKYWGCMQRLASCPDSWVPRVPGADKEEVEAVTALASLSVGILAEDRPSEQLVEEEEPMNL
pIC50: −log10 of the molar value.

- chemical-structure: "COc1ccc2[nH]c(C)c(CC(=O)N[C@@H](CCCCCC(C)=O)c3ncc(-c4ccccc4)[nH]3)c2c1"
  pIC50: "< 6.00"

# input for lookup
Ask: Can you share its pIC50? I mean this compound: "CC(=O)CCCCC[C@H](NC(=O)C1CCN(C)CC1)c1ncc(-c2ccc3ccccc3c2)[nH]1"
Reply: < 6.00
